Tested on: breast cancer cell line T47D
Assay: MTT cancer cell cytotoxicity assay, T47D
Type: cell-based, human
Details: Homo sapiens, T47D cells, 48-72 h
Structures can show the parent of a compound that is named as a salt.
The compounds listed here are annotated with their IC50.

compound: COc1ccc(-c2cn3c(-c4ccccc4OC)nnc3cc2C)cc1
IC50: 151 nM

compound: COc1ccc(-c2ccc3nnc(-c4ccc(C)cc4OC)n3c2)cc1
IC50: 19 nM

compound: COc1ccccc1-c1nnc2ccc(-c3ccc(C)c([N+](=O)[O-])c3)cn12
IC50: 1370 nM

compound: COc1ccccc1-c1nnc2ccc(-c3ccc(OC)c([N+](=O)[O-])c3)cn12
IC50: 896 nM

compound: COc1ccc(-c2ccc3nnc(-c4ccc(N)cc4OC)n3c2)cc1 [Example 87, hydrochloride]
IC50: 308 nM

====

# reported IC50; entries follow
Tested on: breast cancer cell line T47D
Experiment: MTT cancer cell cytotoxicity assay, T47D
Type: cell-based, human
Settings: Homo sapiens, T47D cells, 48-72 h
Experimental: Identification of 3-(2-methoxyphenyl)-6-(4-methoxyphenyl)-[1,2,4]triazolo[4,3-a]pyridine and analogs as inhibitors of cell proliferation that were evaluated with standard MTT cancer cell cytotoxicity assay (IC50) Human lung cancer cell line A549, breast cancer cell line T47D, liver cancer cell lines HepG2 and SMMC7721 as well as a mouse melanoma cell line B16F10 were used in the study. […] Cells were centrifuged, re-suspended in fresh growth media and counted. […]

compound: COc1ccc(-c2ccc3nnc(-c4ccccc4OC)n3c2)cc1C [Example 5]
IC50 [nM]: 40

compound: COc1ccc(-c2ccc3nnc(-c4cccnc4OC)n3c2)cc1 [Example 86]
IC50 [nM]: 40

compound: COc1ccc(-c2ccc3nnc(-c4ccc(Cl)cc4OC)n3c2)cc1N [Example 50]
IC50 [nM]: 1.1

compound: COc1ccc(-c2ccc3nnc(-c4ccc(C(F)(F)F)cc4OC)n3c2)cc1 [Example 60]
IC50 [nM]: 68

compound: COc1ccc(-c2ccc3nnc(-c4ccc(OC)cc4OC)n3c2)cc1 [Example 71]
IC50 [nM]: 22

====

System: breast cancer cell line T47D
Assay: MTT cancer cell cytotoxicity assay, T47D
Type: cell-based, human
Settings: Homo sapiens, T47D cells, 48-72 h
Protocol: Identification of 3-(2-methoxyphenyl)-6-(4-methoxyphenyl)-[1,2,4]triazolo[4,3-a]pyridine and analogs as inhibitors of cell proliferation that were evaluated with standard MTT cancer cell cytotoxicity assay (IC50) Human lung cancer cell line A549, breast cancer cell line T47D, liver cancer cell lines HepG2 and SMMC7721 as well as a mouse melanoma cell line B16F10 were used in the study. […] Cells were centrifuged, re-suspended in fresh growth media and counted. […]
Assign labels as follows, please: condition met for IC50 below 100 nM; condition not met for IC50 equal to or exceeding 100 nM.

compound: COc1ccccc1-c1nnc2ccc(-c3ccccc3)cn12 [Example 24]
category.label: condition not met
//
compound: COc1ccc(-c2ccc3nnc(-c4ccccc4)n3c2)cc1 [Example 68]
category.label: condition not met
//
compound: COc1ccc(-c2ccc3nnc(-c4ccc(Br)cc4OC)n3c2)cc1 [Example 59]
category.label: condition met
//
compound: COc1ccc(-c2ccc3nnc(-c4ccc([N+](=O)[O-])cc4OC)n3c2)cc1 [Example 70]
category.label: condition met
//
compound: CNc1ccc(-c2ccc3nnc(-c4ccc(C)cc4OC)n3c2)cc1 [Example 92]
category.label: condition met
//
compound: COc1cc(-c2ccc3nnc(-c4ccccc4OC)n3c2)ccc1N [Example 43]
category.label: condition not met
//
compound: COc1ccccc1-c1nnc2ccc(-c3ccc(C)cc3)cn12 [Example 22]
category.label: condition not met
//
compound: COc1ccc(-c2ccc3nnc(-c4ccc(F)cc4OC)n3c2)cc1 [Example 58]
category.label: condition met
//
compound: COc1ccc(-c2ccc3nnc(-c4ccc(OC)cc4)n3c2)cc1 [Example 64]
category.label: condition not met

====

The entries below are paired with their reported pIC50.
System: breast cancer cell line T47D
Assay: MTT cancer cell cytotoxicity assay, T47D
Type: cell-based, human
Settings: Homo sapiens, T47D cells, 48-72 h
Procedure: Identification of 3-(2-methoxyphenyl)-6-(4-methoxyphenyl)-[1,2,4]triazolo[4,3-a]pyridine and analogs as inhibitors of cell proliferation that were evaluated with standard MTT cancer cell cytotoxicity assay (IC50) Human lung cancer cell line A549, breast cancer cell line T47D, liver cancer cell lines HepG2 and SMMC7721 as well as a mouse melanoma cell line B16F10 were used in the study. […] Cells were centrifuged, re-suspended in fresh growth media and counted. […]
pIC50: −log10 of the molar value.

structure.as.smiles: CCOc1ccc(-c2ccc3nnc(-c4ccccc4OC)n3c2)cc1C
assay.system: breast cancer cell line T47D
cmp: =
pIC50: 6.82
//
structure.as.smiles: COc1ccc(-c2ccc3nnc(-c4ccc(OC)c(OC)c4OC)n3c2)cc1
assay.system: breast cancer cell line T47D
cmp: =
pIC50: 5.09
//
structure.as.smiles: COc1ccc(-c2ccc3nnc(-c4cccc(OC)c4)n3c2)cc1
assay.system: breast cancer cell line T47D
cmp: =
pIC50: 5.71
//
structure.as.smiles: COc1ccccc1-c1nnc2ccc(-c3ccc([N+](=O)[O-])cc3)cn12
assay.system: breast cancer cell line T47D
cmp: <
pIC50: 5.00
//
structure.as.smiles: COc1ccccc1-c1nnc2ccc(-c3ccc(C)c(N)c3)cn12
assay.system: breast cancer cell line T47D
cmp: =
pIC50: 7.32
//
structure.as.smiles: COc1cccc(-c2ccc3nnc(-c4ccccc4OC)n3c2)c1
assay.system: breast cancer cell line T47D
cmp: =
pIC50: 6.74
//
structure.as.smiles: COc1ncc(-c2ccc3nnc(-c4ccccc4OC)n3c2)cn1
assay.system: breast cancer cell line T47D
cmp: <
pIC50: 5.00
//
structure.as.smiles: COc1ccc([N+](=O)[O-])cc1-c1nnc2ccc(-c3ccc(OC)c([N+](=O)[O-])c3)cn12
assay.system: breast cancer cell line T47D
cmp: =
pIC50: 6.55
//
structure.as.smiles: COc1ccc(-c2ccc3nnc(-c4cccnc4Cl)n3c2)cc1
assay.system: breast cancer cell line T47D
cmp: =
pIC50: 5.36

====

Tested on: liver cancer cell line SMMC7721
Experiment: MTT cancer cell cytotoxicity assay, SMMC7721
Assay type: cell-based, human
Conditions: Homo sapiens, SMMC-7721, SMMC7721 cells, 48-72 h
Where a name gives a salt, the structure may show the parent alone.
Let's look at some compounds and their measured IC50.

compound: COc1ccc(-c2ccc3nnc(-c4cccnc4OC)n3c2)cc1
cmp: =
IC50 (nM): 32

compound: CNc1ccc(-c2ccc3nnc(-c4ccc(C)cc4OC)n3c2)cc1
cmp: =
IC50 (nM): 23

compound: COc1ccc(-c2ccc3nnc(-c4ccc(C(F)(F)F)cc4OC)n3c2)cc1
cmp: =
IC50 (nM): 18

compound: COc1ccccc1-c1nnc2ccc(-c3ccc([N+](=O)[O-])cc3)cn12
cmp: =
IC50 (nM): 5440

compound: COc1ccccc1-c1ccc2nnc(-c3ccccc3OC)n2c1
cmp: >
IC50 (nM): 10000

compound: COc1cccc(-c2ccc3nnc(-c4ccccc4OC)n3c2)c1
cmp: =
IC50 (nM): 79

compound: COc1ccccc1-c1nnc2ccc(-c3ccc(N)cc3)cn12 [Example 47, hydrochloride]
cmp: =
IC50 (nM): 365

compound: COc1ccc(-c2ccc3nnc(-c4ccc(Br)cc4OC)n3c2)cc1
cmp: =
IC50 (nM): 3.8

compound: CCOc1ccc(-c2ccc3nnc(-c4ccccc4OC)n3c2)cc1C
cmp: =
IC50 (nM): 33

====

Tested on: caspase-3 activation
Experiment: Caspase-3 activation (apoptosis induction) in A549 cells
Format: cell-based
Conditions: Homo sapiens, A-549 cells, 24 h treatment, read-out: EC50 to induce caspase-3 activation, A-549
Method: Identification of 3-(2-methoxyphenyl)-6-(4-methoxyphenyl)-[1,2,4]triazolo[4,3-a]pyridine and analogs as inducers of apoptosis in solid tumor cells Human breast cancer cell line T-47D and lung cancer cell line A549, growing in DMEM/F12+10% FBS media were seeded to a density of 20000 cells/well in 96-well cell culture plate and grew overnight (18-24 h) in CO2 cell culture incubator at 37° C. […]

compound: COc1ccc(-c2ccc3nnc(-c4ccccc4OC)n3c2)cc1C [Example 5]
assay.system: caspase-3 activation
unit.abbrev: nM
EC50: 93

compound: COc1ccc(-c2ccc3nnc(-c4ccccc4OC)n3c2)cc1 [Example 1]
assay.system: caspase-3 activation
unit.abbrev: nM
EC50: 83

compound: COc1ccc(-c2ccc3nnc(-c4ccc(C)cc4OC)n3c2)cc1 [Example 66]
assay.system: caspase-3 activation
unit.abbrev: nM
EC50: 11

compound: COc1ccc(-c2ccc3nnc(-c4ccccc4OC)n3c2)cc1F [Example 35]
assay.system: caspase-3 activation
unit.abbrev: nM
EC50: 25

compound: COc1ccc(-c2ccc3nnc(-c4ccccc4OC)n3c2)cc1Cl [Example 26]
assay.system: caspase-3 activation
unit.abbrev: nM
EC50: 32

compound: COc1ccc(-c2ccc3nnc(-c4ccc(Cl)cc4OC)n3c2)cc1 [Example 57]
assay.system: caspase-3 activation
unit.abbrev: nM
EC50: 5
